# test_system: Rγc subunit (Homo sapiens)
# Construct: purchased ACRObiosystems, Inc. ILG-H5256
# Sequence (P31785 23-254): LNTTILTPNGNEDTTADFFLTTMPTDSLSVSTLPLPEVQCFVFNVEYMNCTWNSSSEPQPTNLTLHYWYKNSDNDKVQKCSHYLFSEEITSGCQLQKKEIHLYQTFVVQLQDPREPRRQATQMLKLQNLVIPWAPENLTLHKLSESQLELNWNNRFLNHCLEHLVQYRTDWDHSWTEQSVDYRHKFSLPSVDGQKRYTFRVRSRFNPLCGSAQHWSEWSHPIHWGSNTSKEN
# assay_comment: Alanine scan competition binding assay, binding to Rγc subunit
# cond: alanine scan peptides
observable: IC50

{"molecule": "CC(C)C[C@@H]1NC(=O)[C@H](CCC(=O)O)NC(=O)[C@H](C(C)C)NC(=O)CNC(=O)[C@H](C)NC(=O)[C@H](Cc2c[nH]c3ccccc23)NC(=O)[C@H](CC(=O)O)NC(=O)[C@H](CCC(N)=O)NC(=O)[C@@H](NC(=O)[C@@H](NC(=O)[C@@H](NC(=O)CNC(=O)CN)C(C)C)C(C)C)CSSC[C@@H](C(=O)N[C@@H](Cc2c[nH]c3ccccc23)C(=O)N[C@@H](CCC(N)=O)C(=O)NCC(=O)NCC(=O)O)NC1=O [SEQ ID NO: 1035, G G V V C Q D W A G V E L C W Q G G]", "result": "< 50 nM"}

[in] Enter IC50 (test system Rγc subunit (Homo sapiens)) for CC(C)[C@@H]1NC(=O)CNC(=O)[C@H](CCC(=O)O)NC(=O)[C@H](Cc2c[nH]c3ccccc23)NC(=O)[C@H](CC(=O)O)NC(=O)[C@H](CCC(N)=O)NC(=O)[C@@H](NC(=O)[C@@H](NC(=O)[C@@H](NC(=O)CNC(=O)CN)C(C)C)C(C)C)CSSC[C@@H](C(=O)N[C@@H](Cc2c[nH]c3ccccc23)C(=O)N[C@@H](CCC(N)=O)C(=O)NCC(=O)NCC(=O)O)NC(=O)[C@H](C)NC(=O)[C@H](CCC(=O)O)NC1=O [SEQ ID NO: 1039, G G V V C Q D W E G V E A C W Q G G]
[out] < 5000 nM

[in] Return reported IC50 for target or system Rγc subunit (Homo sapiens), item CC(C)C[C@@H]1NC(=O)[C@H](CCC(=O)O)NC(=O)[C@H](C)NC(=O)CNC(=O)[C@H](CCC(=O)O)NC(=O)[C@H](Cc2c[nH]c3ccccc23)NC(=O)[C@H](CC(=O)O)NC(=O)[C@H](CCC(N)=O)NC(=O)[C@@H](NC(=O)[C@@H](NC(=O)[C@@H](NC(=O)CNC(=O)CN)C(C)C)C(C)C)CSSC[C@@H](C(=O)N[C@@H](Cc2c[nH]c3ccccc23)C(=O)N[C@@H](CCC(N)=O)C(=O)NCC(=O)NCC(=O)O)NC1=O [SEQ ID NO: 1037, G G V V C Q D W E G A E L C W Q G G] .
[out] < 2000 nM

[in] Would you please give the reported IC50 of CC(C)C[C@@H]1NC(=O)[C@H](C)NC(=O)[C@H](C(C)C)NC(=O)CNC(=O)[C@H](CCC(=O)O)NC(=O)[C@H](Cc2c[nH]c3ccccc23)NC(=O)[C@H](CC(=O)O)NC(=O)[C@H](CCC(N)=O)NC(=O)[C@@H](NC(=O)[C@@H](NC(=O)[C@@H](NC(=O)CNC(=O)CN)C(C)C)C(C)C)CSSC[C@@H](C(=O)N[C@@H](Cc2c[nH]c3ccccc23)C(=O)N[C@@H](CCC(N)=O)C(=O)NCC(=O)NCC(=O)O)NC1=O [SEQ ID NO: 1038, G G V V C Q D W E G V A L C W Q G G] with Rγc subunit (Homo sapiens)?
[out] < 50 nM

[in] Param request: IC50 | system Rγc subunit (Homo sapiens) | item CC(C)C[C@@H]1NC(=O)[C@H](CCC(=O)O)NC(=O)[C@H](C(C)C)NC(=O)CNC(=O)[C@H](CCC(=O)O)NC(=O)[C@H](C)NC(=O)[C@H](CC(=O)O)NC(=O)[C@H](CCC(N)=O)NC(=O)[C@@H](NC(=O)[C@@H](NC(=O)[C@@H](NC(=O)CNC(=O)CN)C(C)C)C(C)C)CSSC[C@@H](C(=O)N[C@@H](Cc2c[nH]c3ccccc23)C(=O)N[C@@H](CCC(N)=O)C(=O)NCC(=O)NCC(=O)O)NC1=O [SEQ ID NO: 1034, G G V V C Q D A E G V E L C W Q G G]
[out] < 2000 nM
